target: feline FcRn complex (FcRn-α subunit and β-microglobulin), biotin labeled (feline); assay: SPR, pH 6
readoutType: pKd
In simple prose, pKd is minus the logarithm base ten of a concentration in moles per litre.

stdin: Entry under review: feline IgG1a D399T (antibody, part only; not given: Variable domains, not shown: another chain or arm of the molecule) constant: ASTTAPSVFPLAPSCGTTSGATVALACLVLGYFPEPVTVSWNSGALTSGVHTFPAVLQASGLYSLSSMVTVPSSRWLSDTFTCNVAHPPSNTKVDKTVRKTDHPPGPKPCDCPKCPPPEMLGGPSIFIFPPKPKDTLSISRTPEVTCLVVDLGPDDSDVQITWFVDNTQVYTAKTSPREEQFNSTYRVVSVLPILHQDWLKGKEFKCKVNSKSLPSPIERTISKAKGQPHEPQVYVLPPAQEELSRNKVSVTCLIKSFHPPDIAVEWEITGQPEPENNYRTTPPQLTSDGTYFVYSKLSVDRSHWQRGNTYTCSVSHEALHSHHTQKSLTQSPGK . Reported pKd?
stdout: 8.17
